- System: NCI-H2342
- test.summary: relative viability (nuclei count vs DMSO), 5 days (fraction); higher = more cells survive
- stated.conditions: first compound 1.265 µM
measurement.type: relative viability
Lab note: write the figure by itself, no unit.

Solved cases (2 shown):
# molecule, relative viability
records = [
    ("COc1cc(N2CCC(C(N)=O)CC2)ccc1Nc1nc(N)c(Cl)c(Nc2ccccc2S(=O)(=O)C(C)C)n1 [HG-5-88-01] + N=C(N)NC(=N)NCCc1ccccc1 [Phenformin] (partner 250 µM)", 0.506),
    ("COc1cc(N2CCC(C(N)=O)CC2)ccc1Nc1nc(N)c(Cl)c(Nc2ccccc2S(=O)(=O)C(C)C)n1 [HG-5-88-01] + CCNC(=O)c1noc(-c2cc(C(C)C)c(O)cc2O)c1-c1ccc(CN2CCOCC2)cc1 [Luminespib] (partner 0.01 µM)", 0.701),
]

Okay, next one:
Task: Quick one: give measured relative viability for Clc1ccc(Nc2nnc(Cc3ccncc3)c3ccccc23)cc1 [Vatalanib] + Cc1cc(Nc2cc(N3CCN(C)CC3)nc(Sc3ccc(NC(=O)C4CC4)cc3)n2)n[nH]1 [Tozasertib] (partner 0.1 µM)
Output: 0.465

* * *

- System: NCI-H2009
- test.summary: relative viability (nuclei count vs DMSO), 5 days (fraction); higher = more cells survive
- stated.conditions: first compound 0.4 µM
measurement.type: relative viability
Reply with the value as a number alone.

# compound, relative viability
records = [
    ("Clc1ccc(Nc2nnc(Cc3ccncc3)c3ccccc23)cc1 [Vatalanib] + Nc1ncn([C@H]2C[C@H](O)[C@@H](CO)O2)c(=O)n1 [Decitabine] (partner 2 µM)", 0.343),
    ("C[C@@H]1CN(CC(=O)Nc2ccc3c(c2)Cc2cccc(-c4cc(=O)cc(N5CCOCC5)o4)c2S3)C[C@H](C)O1 + Nc1ncn([C@H]2C[C@H](O)[C@@H](CO)O2)c(=O)n1 [Decitabine] (partner 2 µM)", 0.383),
]

Task: Give a short answer stating reported relative viability for Clc1ccc(Nc2nnc(Cc3ccncc3)c3ccccc23)cc1 [Vatalanib] + CS(=O)(=O)CCNCc1ccc(-c2ccc3ncnc(Nc4ccc(OCc5cccc(F)c5)c(Cl)c4)c3c2)o1 [Lapatinib] (partner 2 µM) .
Output: 1.1

Task: Please give measured relative viability of the following entry: Clc1ccc(Nc2nnc(Cc3ccncc3)c3ccccc23)cc1 [Vatalanib] + O=C(c1cc(Cc2n[nH]c(=O)c3ccccc23)ccc1F)N1CCN(C(=O)C2CC2)CC1 [Olaparib] (partner 8 µM)
Output: 0.675

Task: For the compound C[C@@H]1CN(CC(=O)Nc2ccc3c(c2)Cc2cccc(-c4cc(=O)cc(N5CCOCC5)o4)c2S3)C[C@H](C)O1 + Cc1nc(Nc2ncc(C(=O)Nc3c(C)cccc3Cl)s2)cc(N2CCN(CCO)CC2)n1 [Dasatinib] (partner 0.075 µM) , give its reported relative viability.
Output: 0.305

Task: Specify measured relative viability for COc1cc(N2CCC(C(N)=O)CC2)ccc1Nc1nc(N)c(Cl)c(Nc2ccccc2S(=O)(=O)C(C)C)n1 [HG-5-88-01] + CC(C)C[C@H](NC(=O)[C@H](Cc1ccccc1)NC(=O)c1cnccn1)B(O)O [Bortezomib] (partner 0.002 µM) .
Output: 0.845

Task: Please indicate relative viability recorded for COc1cc(N2CCC(C(N)=O)CC2)ccc1Nc1nc(N)c(Cl)c(Nc2ccccc2S(=O)(=O)C(C)C)n1 [HG-5-88-01] + COc1cc2c(Oc3ccc(NC(=O)C4(C(=O)Nc5ccc(F)cc5)CC4)cc3F)ccnc2cc1OCCCN1CCOCC1 [Foretinib] (partner 0.25 µM)
Output: 1.14

Task: Quick one: give measured relative viability for COc1cc(N2CCC(C(N)=O)CC2)ccc1Nc1nc(N)c(Cl)c(Nc2ccccc2S(=O)(=O)C(C)C)n1 [HG-5-88-01] + Nc1ncn([C@H]2C[C@H](O)[C@@H](CO)O2)c(=O)n1 [Decitabine] (partner 2 µM)
Output: 0.338

Task: Return value of relative viability for input Clc1ccc(Nc2nnc(Cc3ccncc3)c3ccccc23)cc1 [Vatalanib] + C[C@]1(O)C[C@@H](c2nc(-c3ccc4ccc(-c5ccccc5)nc4c3)c3c(N)nccn32)C1 [Linsitinib] (partner 1 µM) , no commentary.
Output: 1.3

* * *

- Tested on: LXF-289
- test.summary: relative viability (nuclei count vs DMSO), 5 days (fraction); higher = more cells survive
- stated.conditions: first compound 4 µM
The following molecules are listed with their measured relative viability values.
Number only, no unit.

# molecule, relative viability
measured = [
    ("COc1cc(N2CCC(C(N)=O)CC2)ccc1Nc1nc(N)c(Cl)c(Nc2ccccc2S(=O)(=O)C(C)C)n1 [HG-5-88-01] + CC(C)C[C@H](NC(=O)[C@H](Cc1ccccc1)NC(=O)c1cnccn1)B(O)O [Bortezomib] (partner 0.002 µM)", 0.981),
]

Turning now to a further molecule:
Task: Return the recorded relative viability value; entry: COc1cc(N2CCC(C(N)=O)CC2)ccc1Nc1nc(N)c(Cl)c(Nc2ccccc2S(=O)(=O)C(C)C)n1 [HG-5-88-01] + Nc1nc2[nH]cc(CCc3ccc(C(=O)N[C@@H](CCC(=O)O)C(=O)O)cc3)c2c(=O)[nH]1 [Pemetrexed] (partner 0.2 µM)
Output: 0.926

* * *

List of relative viability values.
- System: NCI-H596
- test.summary: relative viability (nuclei count vs DMSO), 5 days (fraction); higher = more cells survive
- stated.conditions: first compound 0.04 µM
Form rule: numeric answer, no unit written next to it.

Guide cases for relative viability, answers given:
# compound, relative viability
data = [
    ("C[C@@H]1CN(CC(=O)Nc2ccc3c(c2)Cc2cccc(-c4cc(=O)cc(N5CCOCC5)o4)c2S3)C[C@H](C)O1 + NC(=O)Nc1cc(-c2cccc(F)c2)sc1C(=O)N[C@H]1CCCNC1 [AZD7762] (partner 0.2 µM)", 1.12),
    ("COc1cc(N2CCC(C(N)=O)CC2)ccc1Nc1nc(N)c(Cl)c(Nc2ccccc2S(=O)(=O)C(C)C)n1 [HG-5-88-01] + C[C@]1(O)C[C@@H](c2nc(-c3ccc4ccc(-c5ccccc5)nc4c3)c3c(N)nccn32)C1 [Linsitinib] (partner 1 µM)", 1),
]

Task: Return the recorded relative viability value; entry: COc1cc(N2CCC(C(N)=O)CC2)ccc1Nc1nc(N)c(Cl)c(Nc2ccccc2S(=O)(=O)C(C)C)n1 [HG-5-88-01] + CC1(C)CCC(c2ccc(Cl)cc2)=C(CN2CCN(c3ccc(C(=O)NS(=O)(=O)c4ccc(N[C@H](CCN5CCOCC5)CSc5ccccc5)c(S(=O)(=O)C(F)(F)F)c4)cc3)CC2)C1 [Navitoclax] (partner 0.5 µM)
Output: 0.943

Task: Consider the compound COc1cc(N2CCC(C(N)=O)CC2)ccc1Nc1nc(N)c(Cl)c(Nc2ccccc2S(=O)(=O)C(C)C)n1 [HG-5-88-01] + CC(=O)Nc1cccc(-n2c(=O)n(C3CC3)c(=O)c3c(Nc4ccc(I)cc4F)n(C)c(=O)c(C)c32)c1 [Trametinib] (partner 0.02 µM) . State its measured relative viability.
Output: 0.901

Task: Retrieve relative viability measured for C[C@@H]1CN(CC(=O)Nc2ccc3c(c2)Cc2cccc(-c4cc(=O)cc(N5CCOCC5)o4)c2S3)C[C@H](C)O1 + O=C(CCCCCCC(=O)Nc1ccccc1)NO [Vorinostat] (partner 1 µM) and print it.
Output: 0.627

Task: Give recorded relative viability. COc1cc(N2CCC(C(N)=O)CC2)ccc1Nc1nc(N)c(Cl)c(Nc2ccccc2S(=O)(=O)C(C)C)n1 [HG-5-88-01] + Cc1nc(Nc2ncc(C(=O)Nc3c(C)cccc3Cl)s2)cc(N2CCN(CCO)CC2)n1 [Dasatinib] (partner 0.075 µM)
Output: 0.6

Task: Quickly give me recorded relative viability for Clc1ccc(Nc2nnc(Cc3ccncc3)c3ccccc23)cc1 [Vatalanib] + N=C(N)NC(=N)NCCc1ccccc1 [Phenformin] (partner 250 µM)
Output: 0.715

* * *

- Test system: NCI-H1755
- test.summary: relative viability (nuclei count vs DMSO), 5 days (fraction); higher = more cells survive
- stated.conditions: first compound 0.1265 µM
relative viability values, listed per item
Give the figure only, with no unit attached.

# compound, relative viability
records = [
    ("Clc1ccc(Nc2nnc(Cc3ccncc3)c3ccccc23)cc1 [Vatalanib] + C[C@]1(O)C[C@@H](c2nc(-c3ccc4ccc(-c5ccccc5)nc4c3)c3c(N)nccn32)C1 [Linsitinib] (partner 1 µM)", 1.04),
]

Shifting focus to the compound that follows.
Task: In one line, give reported relative viability of the entry COc1cc(N2CCC(C(N)=O)CC2)ccc1Nc1nc(N)c(Cl)c(Nc2ccccc2S(=O)(=O)C(C)C)n1 [HG-5-88-01] + Cc1nc(Nc2ncc(C(=O)Nc3c(C)cccc3Cl)s2)cc(N2CCN(CCO)CC2)n1 [Dasatinib] (partner 0.075 µM) .
Output: 0.514
